- Test system: Phospholipidosis
- method-notes: Literature-mined public compounds from Lowe et al phospholipidosis modelling dataset

compound	Phospholipidosis
Cn1c(=O)c2c(ncn2C)n(C)c1=O [CAFFEINE]	Negative
CC[C@H]1CN2CCc3cc(OC)c(OC)cc3[C@@H]2C[C@@H]1C[C@H]1NCCc2cc(OC)c(OC)cc21 [EMETINE]	Positive
CC(C)C(=O)Nc1ccc([N+](=O)[O-])c(C(F)(F)F)c1 [FLUTAMIDE]	Negative
CCCC[C@@H]1CC(=O)[C@]2(O)O[C@@H]3[C@@H](NC)[C@@H](O)[C@@H](NC)[C@H](O)[C@H]3O[C@@H]2O1.O=S(=O)(O)O	Positive
CN1CCN(Cc2nc3cccc4c3c([n+]2[O-])-c2ccccc2-4)CC1	Positive
COc1cc([C@@H]2c3cc4c(cc3[C@@H](O[C@@H]3O[C@@H]5CO[C@@H](C)O[C@H]5[C@H](O)[C@H]3O)[C@H]3COC(=O)[C@H]23)OCO4)cc(OC)c1O [ETOPOSIDE]	Negative
CC(C)(N)Cc1ccc(Cl)cc1 [CHLORPHENTERMINE]	Positive
CC(NC(C)(C)C)C(=O)c1cccc(Cl)c1 (configuration not stated) [BUPROPION]	Negative
CC[C@H]1OC(=O)[C@H](C)[C@@H](O[C@H]2C[C@@](C)(OC)[C@@H](O)[C@H](C)O2)[C@H](C)[C@@H](O[C@@H]2O[C@H](C)C[C@H](N(C)C)[C@H]2O)[C@](C)(O)C[C@@H](C)C(=O)[C@H](C)[C@@H](O)[C@]1(C)O [ERYTHROMYCIN]	Positive
O=C1CN(/N=C/c2ccc(-c3ccc([N+](=O)[O-])cc3)o2)C(O)=N1 [DANTROLENE]	Negative
CCN(CC)CCNC(=O)c1ccc(N)cc1 [PROCAINAMIDE]	Negative
CN(C)C(=N)N=C(N)N [METFORMIN]	Negative
COc1cccc2c1C(=O)c1c(O)c3c(c(O)c1C2=O)C[C@@](O)(C(=O)CO)C[C@@H]3O[C@H]1C[C@H](N)[C@H](O)[C@H](C)O1 [DOXORUBICIN]	Negative
Nc1c(Br)cc(Br)cc1CN[C@H]1CC[C@H](O)CC1 [AMBROXOL]	Positive
CN1CCN(C2=Nc3cc(Cl)ccc3N(C)n3cccc32)CC1	Positive
OC(CN1CCCCC1)c1ccc(C=C2c3ccccc3-c3ccccc32)cc1 (configuration not stated)	Positive
CN(C)CCC=C1c2ccccc2C=Cc2c(Cl)cccc21	Positive

###

- System: Phospholipidosis
- method-notes: Literature-mined public compounds from Lowe et al phospholipidosis modelling dataset
quantity-name: Phospholipidosis

molecule	experimental-result
Cc1cn([C@H]2C[C@H](N=[N+]=[N-])[C@@H](CO)O2)c(=O)[nH]c1=O	Negative
CN1CCCCC1CCN1c2ccccc2Sc2ccc([S+](C)[O-])cc21 (stereo not given)	Positive
CNCCC(Oc1ccc(C(F)(F)F)cc1)c1ccccc1 (stereo not given)	Positive
CC(CN1c2ccccc2Sc2ccccc21)N(C)C (stereo not given)	Positive
[N-]=[N+]=CC(=O)OC[C@H](N)C(=O)O	Negative
C1CCC(C(CC2CCCCN2)C2CCCCC2)CC1 (stereo not given)	Positive
C[C@](N)(Cc1ccc(O)c(O)c1)C(=O)O	Negative
CN(Cc1cc(Br)cc(Br)c1N)C1CCCCC1	Positive
NC(=O)NO [HYDROXYUREA]	Negative
S=C=Nc1cccc2ccccc12 [1-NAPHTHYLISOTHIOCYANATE]	Negative
N=C(N)NCCCCCCCCCCNC(=N)N [SYNTHALIN]	Negative
OCCOCCN1CCN(C(c2ccccc2)c2ccc(Cl)cc2)CC1 (stereo not given) [HYDROXYZINE]	Positive
CN(C)CCN(Cc1ccccc1)c1ccccn1	Positive
CCN[C@@H]1C[C@H](N)[C@@H](O[C@H]2OC(CN)=CC[C@H]2N)[C@H](O)[C@H]1O[C@H]1OC[C@](C)(O)[C@H](NC)[C@H]1O	Positive
CC(C)NCC(O)c1ccc(NS(C)(=O)=O)cc1 (stereo not given)	Negative
CC(C)OC(=O)C(C)(C)Oc1ccc(C(=O)c2ccc(Cl)cc2)cc1 [FENOFIBRATE]	Negative
N[C@H]1C(O)O[C@H](CO)[C@@H](O)[C@@H]1O (stereo not given in full)	Negative
CNCCC=C1c2ccccc2CCc2ccccc21	Positive
CC(C)(O/N=C(\C(=O)N[C@@H]1C(=O)N2C(C(=O)[O-])=C(C[n+]3ccccc3)CS[C@H]12)c1csc(N)n1)C(=O)O	Negative
CN1CCN(C2=Nc3cc(Cl)ccc3Nc3ccccc32)CC1	Positive
